Catalogue of MIC values
System: Staphylococcus aureus
Test: In Vitro minimal inhibitory concentration against Staphylococcus aureus (FDA 209P)
Type: functional

Compound	Study System	Readout Qualifier	MIC / µg/mL
O=C(Cc1ccccc1)N[C@@H]1C(=O)N2C(C(=O)O)=C(OS(=O)(=O)C(F)(F)F)NC[C@H]12 (racemic)	Staphylococcus aureus	=	0.01
CS(=O)(=O)OC1=C(C(=O)OCc2ccccc2)N2C(=O)[C@@H](NC(=O)Cc3ccccc3)[C@H]2CN1 (racemic)	Staphylococcus aureus	>	128
O=C(Cc1ccccc1)N[C@@H]1C(=O)N2C(C(=O)OCc3ccccc3)=C(OS(=O)(=O)C(F)(F)F)NC[C@H]12 (racemic)	Staphylococcus aureus	>	128
O=C(Cc1ccccc1)N[C@@H]1C(=O)N2C(C(=O)O)=C(O)NC[C@H]12 (racemic)	Staphylococcus aureus	=	29.5
CO/N=C(\C(=O)N[C@@H]1C(=O)N2C(C(=O)O)=C(COC(C)=O)CS[C@H]12)c1csc(N)n1 [CEFOTAXIME]	Staphylococcus aureus	=	0.08
CS(=O)(=O)OC1=C(C(=O)O)N2C(=O)[C@@H](NC(=O)Cc3ccccc3)[C@H]2CN1 (racemic)	Staphylococcus aureus	=	0.07
CC1(C)S[C@@H]2[C@H](NC(=O)Cc3ccccc3)C(=O)N2[C@H]1C(=O)O [PENICILLIN G]	Staphylococcus aureus	=	0.4

###

System: Pseudomonas aeruginosa
Assay: In Vitro minimal inhibitory concentration against Pseudomonas aeruginosa (1101-75)
Type: functional
Please note: MIC exactly at 100 µg/mL is -1. Only values below 100 µg/mL get 1.

Molecule	Label Class
CS(=O)(=O)C1(C(=O)O)C(=O)NC[C@@H]2[C@H](NC(=O)Cc3ccccc3)C(=O)N21 (stereo not given in full)	-1
CS(=O)(=O)OC1=C(C(=O)OCc2ccccc2)N2C(=O)[C@@H](NC(=O)Cc3ccccc3)[C@H]2CN1 (racemic)	-1
O=C(Cc1ccccc1)N[C@@H]1C(=O)N2C(C(=O)OCc3ccccc3)=C(OS(=O)(=O)C(F)(F)F)NC[C@H]12 (racemic)	-1
CS(=O)(=O)C1=C(O)NC[C@@H]2[C@H](NC(=O)Cc3ccccc3)C(=O)N12 (racemic)	-1
O=C(Cc1ccccc1)N[C@@H]1C(=O)N2C(C(=O)O)=C(OS(=O)(=O)C(F)(F)F)NC[C@H]12 (racemic)	1
CC1(C)S[C@@H]2[C@H](NC(=O)Cc3ccccc3)C(=O)N2[C@H]1C(=O)O [PENICILLIN G]	-1
O=C(Cc1ccccc1)N[C@@H]1C(=O)N2C(C(=O)O)=C(O)NC[C@H]12 (racemic)	-1
CO/N=C(\C(=O)N[C@@H]1C(=O)N2C(C(=O)O)=C(COC(C)=O)CS[C@H]12)c1csc(N)n1 [CEFOTAXIME]	1
CS(=O)(=O)OC1=C(C(=O)O)N2C(=O)[C@@H](NC(=O)Cc3ccccc3)[C@H]2CN1 (racemic)	1

###

Test system: Escherichia coli
Test: In Vitro minimal inhibitory concentration against Escherichia coli (ATCC 39188)
Type: functional

Compound	Readout Qualifier	MIC / µg/mL
CO/N=C(\C(=O)N[C@@H]1C(=O)N2C(C(=O)O)=C(COC(C)=O)CS[C@H]12)c1csc(N)n1	=	0.25
O=C(Cc1ccccc1)N[C@@H]1C(=O)N2C(C(=O)OCc3ccccc3)=C(OS(=O)(=O)C(F)(F)F)NC[C@H]12 (racemic)	>	128
CC1(C)S[C@@H]2[C@H](NC(=O)Cc3ccccc3)C(=O)N2[C@H]1C(=O)O	=	2.3
CS(=O)(=O)OC1=C(C(=O)O)N2C(=O)[C@@H](NC(=O)Cc3ccccc3)[C@H]2CN1 (racemic)	=	0.95
CS(=O)(=O)OC1=C(C(=O)OCc2ccccc2)N2C(=O)[C@@H](NC(=O)Cc3ccccc3)[C@H]2CN1 (racemic)	>	128
CS(=O)(=O)C1(C(=O)O)C(=O)NC[C@@H]2[C@H](NC(=O)Cc3ccccc3)C(=O)N21 (stereo not given in full)	=	97.2
CS(=O)(=O)C1=C(O)NC[C@@H]2[C@H](NC(=O)Cc3ccccc3)C(=O)N12 (racemic)	>	128
CC1=C(C(=O)O)N2C(=O)[C@@H](NC(=O)Cc3ccccc3)[C@H]2SC1	=	13.1
O=C(Cc1ccccc1)N[C@@H]1C(=O)N2C(C(=O)O)=C(O)NC[C@H]12 (racemic)	=	94.7
O=C(Cc1ccccc1)N[C@@H]1C(=O)N2C(C(=O)O)=C(OS(=O)(=O)C(F)(F)F)NC[C@H]12 (racemic)	=	0.09
